Values were extracted from ChEMBL document CHEMBL5236579.

# Test system: Cell membrane
# test_method_notes: Induction of inner membrane permeabilization in Vibrio parahaemolyticus ATCC17802 at 5 times MIC measured upto 200 mins by propidium iodide penetration assay
# Type: cell membranes
Activity calls are given as the source filed them. The calls are words filed in the database; no cut-off is given here. Where a SMILES comes first, the peptide text is derived from it.
attribute_measured: Activity

# molecule, measured
rows = [
    ("CC[C@H](C)[C@H](NC(=O)[C@H](CC(C)C)NC(=O)[C@H](CCCNC(=N)N)NC(=O)[C@H](CC(C)C)NC(=O)[C@H](CC(C)C)NC(=O)[C@H](CCCCN)NC(=O)[C@H](CCCCN)NC(=O)[C@H](Cc1ccccc1)NC(=O)[C@H](CC(C)C)NC(=O)CNC(=O)[C@@H](N)CC(C)C)C(=O)N[C@@H](CCCCN)C(=O)N[C@@H](CCCCN)C(=O)NCC(=O)N[C@@H](Cc1ccccc1)C(=O)N[C@@H](CCCCN)C(=O)N[C@@H](CC(C)C)C(=O)O (H-LGLFKKLLRLIKKGFKL-OH)", "Active"),
    ("CC[C@H](C)[C@H](NC(=O)[C@H](CC(C)C)NC(=O)[C@H](CCCNC(=N)N)NC(=O)[C@H](CC(C)C)NC(=O)[C@H](CC(C)C)NC(=O)[C@H](CCCCN)NC(=O)[C@H](CCCCN)NC(=O)[C@H](Cc1ccccc1)NC(=O)[C@H](CC(C)C)NC(=O)CNC(=O)[C@@H](N)CC(C)C)C(=O)N[C@@H](CCCCN)C(=O)N[C@@H](CCCCN)C(=O)NCC(=O)N[C@@H](Cc1ccccc1)C(=O)N[C@@H](CCCCN)C(=O)N[C@@H](CCCCN)C(=O)O (H-LGLFKKLLRLIKKGFKK-OH)", "Active"),
    ("CC[C@H](C)[C@H](NC(=O)[C@H](CC(C)C)NC(=O)[C@H](CCCNC(=N)N)NC(=O)[C@H](CC(C)C)NC(=O)[C@H](CC(C)C)NC(=O)[C@H](CCCCN)NC(=O)[C@H](CCCCN)NC(=O)[C@H](Cc1ccccc1)NC(=O)[C@H](CC(C)C)NC(=O)CNC(=O)[C@@H](N)CCCNC(=N)N)C(=O)N[C@@H](CCCCN)C(=O)N[C@@H](CCCCN)C(=O)NCC(=O)N[C@@H](Cc1ccccc1)C(=O)N[C@@H](CCCCN)C(=O)N[C@@H](CCCCN)C(=O)O (H-RGLFKKLLRLIKKGFKK-OH)", "Active"),
]
